This collection of values is drawn from ChEMBL document CHEMBL4049411.

Each entry below carries its recorded Papp A→B at 3 h, 5 µM.
Experiment: Apparent permeability across apical to basolateral side in human Caco2 cells at 5 uM measured up to 180 mins by LC-MS/MS analysis
Type: ADME, cell-based
Conditions: Caco-2
Provide only the numeric value, understood in ×10⁻⁶ cm/s.

Example molecules with recorded Papp A→B at 3 h, 5 µM:
Cc1c(-c2ccc(N3CC[C@H](F)C3)cc2)[nH]c2cc(F)cc(F)c2c1=O
15.5
Cc1c(-c2ccc(N3CCCC(F)C3)cc2)[nH]c2cc(F)cc(F)c2c1=O (centres undefined)
22.9
Cc1c(-c2ccc(N3CCC(F)(F)C3)cc2)[nH]c2cc(F)cc(F)c2c1=O
10

Now for another entry.
Sure, the documented Papp A→B at 3 h, 5 µM for Cc1c(-c2ccc(-n3cccc3)cc2)[nH]c2cc(F)cc(F)c2c1=O is 31

====

System: Mycobacterium tuberculosis H37Rv
Assay: Inhibition of replicating Mycobacterium tuberculosis H37Rv NDH assessed as cell growth inhibition after 7 days by MABA method
Output Yes for records whose IC90 is lower than 800 nM, No for records at or above 800 nM.

Examples from the recorded data:
Cc1c(-c2ccc(N3CCCC(F)C3)cc2)[nH]c2cc(F)cc(F)c2c1=O (stereo unspecified)
Yes
Cc1c(-c2ccc(N3CCC(C)CC3)cc2)[nH]c2cc(F)cc(F)c2c1=O
No
Cc1c(-c2ccc(N3CCC(F)(F)C3)cc2)[nH]c2cc(F)cc(F)c2c1=O
No
Cc1c(-c2ccc(N3CCC(F)CC3)cc2)[nH]c2cc(F)cc(F)c2c1=O
No
Cc1c(-c2ccc(N3CCC[C@H](C)C3)cc2)[nH]c2cc(F)cc(F)c2c1=O
Yes

Prompt line: Is the reported IC90 for Cc1c(-c2ccc(N3CCCC(C)C3)cc2)[nH]c2cc(F)cc(F)c2c1=O (stereo unspecified) strictly below 800 nM?
Response line: Yes

Prompt line: Is the reported IC90 for Cc1c(-c2ccc(N3CCCC(F)(F)C3)cc2)[nH]c2cc(F)cc(F)c2c1=O strictly below 800 nM?
Response line: No

Prompt line: Is the reported IC90 for Cc1c(-c2ccc(N3CC[C@@H](F)C3)cc2)[nH]c2cc(F)cc(F)c2c1=O strictly below 800 nM?
Response line: Yes

Prompt line: Is the reported IC90 for Cc1c(-c2ccc(-n3cc(F)c(F)c3)cc2)[nH]c2cc(F)cc(F)c2c1=O strictly below 800 nM?
Response line: No

Prompt line: Is the reported IC90 for Cc1c(-c2ccc(-n3cccc3)cc2)[nH]c2cc(F)cc(F)c2c1=O strictly below 800 nM?
Response line: Yes

====

Assay: Inhibition of replicating Mycobacterium tuberculosis H37Rv NDH assessed as cell growth inhibition after 7 days by MABA method
Conditions: 168 h
Each entry below carries its recorded IC50.

Example compounds with recorded IC50:
Cc1c(-c2ccc(N3CCCCCC3)cc2)[nH]c2cc(F)cc(F)c2c1=O
0.49 µM
O=c1c(Br)c(-c2ccc(N3CCC(F)CC3)cc2)[nH]c2ccccc12
> 10 µM
Cc1c(-c2ccc(-n3cccn3)cc2)[nH]c2cc(F)cc(F)c2c1=O
> 10 µM
COc1ccc2c(=O)c(C)c(-c3ccc(N4CCN(c5ccccc5)CC4)cc3)[nH]c2c1
> 10 µM
Cc1c(-c2ccc(N3CCC(F)CC3)cc2)[nH]c2cc(F)cc(F)c2c1=O
0.94 to 0.95 µM

Now for another entry.
Sure, the documented IC50 for Cc1c(-c2ccc(-n3cccc3)c(Cl)c2)[nH]c2cc(F)cc(F)c2c1=O is > 10 µM
